Multiple publications report IC50 for UniProt P21453; what follows is a combined list.
Enter your answer as a number in nM; do not include the unit.

Lookup: Please report the recorded IC50 for `CC(C)Nc1c(-c2nc(-c3ccc(CN4CC(C(=O)O)C4)cc3)no2)cnn1-c1ccccc1` .
Found: 0.48

Lookup: Please do the same for CC(C)(O)CNC(=O)CCNC(=O)C(O)c1ccc(-c2noc(-c3onc(-c4ccccc4)c3C(F)(F)F)n2)cc1 (single isomer, unassigned) as well.
Found: 0.46

Lookup: Please do the same for CNC(=O)[C@H](C)NC(=O)C(O)c1ccc(-c2noc(-c3onc(-c4ccccc4)c3C(F)(F)F)n2)cc1 (mixture of isomers) as well.
Found: 2.6

Lookup: Please do the same for `O=C(O)C1CN(Cc2ccc(-c3noc(-c4cnn(-c5ccccn5)c4C4CCCC4)n3)cc2)C1` as well.
Found: 0.19

Lookup: Please do the same for `O=C(O)C1CN(Cc2ccc(-c3noc(C/C=C/C4(c5ccc(F)cc5)CCCCC4)n3)cc2)C1` as well.
Found: 3.4

Lookup: Please do the same for `CCCCc1ccc(OC[C@](C)(N)C(=O)Nc2ccc(Oc3ccc(CCCC)cc3)cc2)cc1` as well.
Found: 167

Lookup: Please do the same for `O=C(O)C1CN(Cc2ccc(-c3noc(-c4noc(-c5ccccc5)c4C4CC4)n3)cc2)C1` as well.
Found: 0.043

Lookup: Please do the same for `O=C(O)C1CN(Cc2ccc3c(c2)CCc2c-3noc2-c2noc(-c3ccccc3)c2C(F)(F)F)C1` as well.
Found: 0.66

Lookup: Please do the same for `COc1cccc(Oc2ccc(NC(=O)[C@@](C)(N)CO)cc2)c1` as well.
Found: 3.5

Lookup: Please do the same for C/C(=N\OCCc1ccccc1)c1ccc(C2CC[C@](N)(COP(=O)(O)O)C2)cc1 (stereo in doubt) as well.
Found: 49.6

Lookup: Please do the same for `CC(C)Cc1onc(-c2nc(-c3ccc(CN4CC(C(=O)O)C4)cc3)no2)c1C(F)(F)F` as well.
Found: 0.15

Lookup: Please do the same for `O=C(O)C1CN(Cc2ccc(-c3noc(-c4onc(-c5ccccc5)c4C(F)F)n3)cc2)C1` as well.
Found: 0.078

Lookup: Please do the same for `O=C(O)C1CN(Cc2ccc3c(c2)OCc2c-3noc2-c2onc(-c3ccccc3)c2C(F)(F)F)C1` as well.
Found: 1.6

###

Multiple publications report IC50 for S1P1 (Homo sapiens (Human)); what follows is a combined list.
We label by threshold. Values of IC50 strictly beneath 100 nM are y. Values of 100 nM and up are n.

Lookup: Dear colleague, could you confirm whether IC50 of `Fc1ccccc1COc1ccc(-c2noc(CCC3(c4ccccc4)CCCCC3)n2)cc1` falls below 100 nM? Thanks.
Found: n

Lookup: Please do the same for O=C(O)CC1CCCN([C@@H]2COc3cc(-c4noc(-c5onc(-c6ccccc6)c5C(F)(F)F)n4)ccc3[C@@H]2O)C1 (single isomer, unassigned) as well.
Found: y

Lookup: Please do the same for `CC(C)Oc1ccc(-c2onc3c2CCc2cc(CNCCC(=O)O)ccc2-3)cc1C#N` as well.
Found: y

Lookup: Please do the same for `O=C(O)C1CN(Cc2ccc(-c3noc(-c4cc(-c5ccccn5)no4)n3)cc2)C1` as well.
Found: y

Lookup: Please do the same for `Cc1ccccc1-c1ccc(CCOc2ccc(NC(=O)[C@@](C)(N)CO)cc2)cc1` as well.
Found: n

Lookup: Please do the same for `CCCCCC[C@@H]1CCc2cc([C@H]3CC[C@](N)(COP(=O)(O)O)C3)ccc2C1` as well.
Found: y

Lookup: Please do the same for `CC(=NOCc1ccc(C(F)(F)F)cc1)c1ccc([C@@H]2CC[C@](N)(COP(=O)(O)O)C2)cc1` as well.
Found: y

Lookup: Please do the same for NC1(COP(=O)(O)O)CCN(C(=O)c2ccc(/C(=N/OCCCc3ccccc3)C(F)(F)F)cc2)C1 (stereo not drawn) as well.
Found: n

Lookup: Please do the same for `C/C(=N\OCCCc1ccccc1)c1ccc(S(=O)(=O)N2CCC(N)(COP(=O)(O)O)CC2)cc1` as well.
Found: n

Lookup: Please do the same for `O=C(O)C1CN(Cc2ccc(-c3noc(-c4cnn(-c5ccccc5)c4-c4cccnc4)n3)cc2)C1` as well.
Found: y

Lookup: Please do the same for `O=C(O)C1CN(Cc2ccc3c(c2)CCc2c-3noc2-c2onc(-c3ccccc3)c2C(F)(F)F)C1` as well.
Found: y

Lookup: Please do the same for `Clc1ccc(COc2ccc(-c3noc(CCC4(c5ccccc5)CCCCC4)n3)cc2)cc1` as well.
Found: n

Lookup: Please do the same for C/C(=N\OCc1ccc(C2CCCCC2)c(C(F)(F)F)c1)c1ccc(C(=O)N2CCCC(N)(COP(=O)(O)O)C2)cc1 (single isomer, unassigned) as well.
Found: n

Lookup: Please do the same for `CCc1ccc(-c2ccc(CCOc3ccc(NC(=O)[C@@](C)(N)CO)cc3)cc2)cc1` as well.
Found: n

###

Multiple publications report IC50 for S1P1 (Homo sapiens (Human)); what follows is a combined list.
Enter your answer as a number in nM; do not include the unit.

Lookup: Please report the recorded IC50 for C/C(=N\OCCCc1ccccc1)c1ccc(C(=O)N2CCCC(N)(COP(=O)(O)O)C2)cc1 (single isomer, unassigned) .
Found: 899

Lookup: Please do the same for `CC(C)Cc1onc(-c2onc3c2CCc2cc(CN4CC(C(=O)O)C4)ccc2-3)c1C(F)(F)F` as well.
Found: 0.57

Lookup: Please do the same for OCC1COCCN1Cc1ccc2c(c1)CCc1c-2noc1-c1noc(-c2ccccc2)c1C(F)(F)F (stereo not drawn) as well.
Found: 600

Lookup: Please do the same for `CC(=NOCC1CC1)c1ccc([C@@H]2CC[C@](N)(COP(=O)(O)O)C2)cc1` as well.
Found: 284

Lookup: Please do the same for O=C(NC[C@@H]1CCCC[C@H]1O)C(O)c1ccc(-c2noc(-c3cnn(-c4ccccc4)c3C(F)(F)F)n2)cc1 (mixture of isomers) as well.
Found: 260

Lookup: Please do the same for O=C(NCc1cc2ccccc2[nH]1)C(O)c1ccc(-c2noc(-c3onc(-c4ccccc4)c3C(F)(F)F)n2)cc1 (racemic) as well.
Found: 180

Lookup: Please do the same for O=C(NCc1cnco1)C(O)c1ccc(-c2noc(-c3onc(-c4ccccc4)c3C(F)(F)F)n2)cc1 (racemic) as well.
Found: 2.1

Lookup: Please do the same for `C/C(=N\OCc1ccc(C2CCCCC2)c(C(F)(F)F)c1)c1ccc(C(=O)N2CCC(N)(COP(=O)(O)O)CC2)cc1` as well.
Found: 10.7

Lookup: Please do the same for `CCNc1c(-c2nc(-c3ccc(CN4CC(C(=O)O)C4)cc3)no2)cnn1-c1ccccc1` as well.
Found: 1.1

Lookup: Please do the same for `CCCc1c(-c2nc(-c3ccc(CN4CC(C(=O)O)C4)cc3)no2)cnn1-c1ccccn1` as well.
Found: 0.12

###

Multiple publications report log10 of IC50 for UniProtKB P21453; what follows is a combined list.
Kindly note that the scale is log10 and the underlying IC50 is in nM.

Lookup: Please report the recorded log10 of IC50 for CC(N)(CO)CCc1ccc2c(c1)CCc1c-2noc1-c1noc(-c2ccccc2)c1C(F)(F)F (single isomer, unassigned) .
Found: 1.34

Lookup: Please do the same for `Cc1ccc(-c2noc(CCC3(c4cc(F)cc(F)c4)CCCCC3)n2)c(=O)[nH]1` as well.
Found: 3.11

Lookup: Please do the same for `C/C(=N\OCCCc1ccccc1)c1ccc(C(=O)N2CCC(N)(COP(=O)(O)O)CC2)cc1` as well.
Found: 3.27

Lookup: Please do the same for `O=C(NCC(F)(F)F)c1c(-c2ccccc2)noc1-c1nc(-c2ccc(CN3CC(C(=O)O)C3)cc2)no1` as well.
Found: 0.81

Lookup: Please do the same for `O=C(O)C1CN(Cc2ccc(-c3noc(-c4onc(-c5ccccc5)c4C(F)(F)F)n3)cc2)C1` as well.
Found: -1.04

Lookup: Please do the same for `CC(C)Oc1ccc(-c2onc3c2CCc2cc(CN4CC(C(=O)O)C4)ccc2-3)cc1C(F)(F)F` as well.
Found: 0.83

Lookup: Please do the same for C/C(=N\OCCCc1ccccc1)c1ccc(C(=O)N2CCC(N)(COP(=O)(O)O)C2)cc1 (single isomer, unassigned) as well.
Found: 3.17

Lookup: Please do the same for `O=C(O)C1CN(Cc2ccc(-c3noc(-c4noc(-c5ccccc5)c4C(F)(F)F)n3)cc2)C1` as well.
Found: -1.30

Lookup: Please do the same for `CC(=NOCc1ccccc1)c1ccc([C@@H]2CC[C@](N)(COP(=O)(O)O)C2)cc1` as well.
Found: 2.94

Lookup: Please do the same for `OCc1ccc2c(c1)CCc1c-2noc1-c1cccc(C(F)(F)F)c1` as well.
Found: 3.51

Lookup: Please do the same for CC/C(=N\OCCCc1ccccc1)c1ccc(C(=O)N2CCC(N)(COP(=O)(O)O)C2)cc1 (single isomer, unassigned) as well.
Found: 3.40
